B1: ZNF449 (parent)
chain: EPHKCPECGKRFLRSSDLYRHQRL

variants of: B1; assay: protein stability index of a GFP-peptide fusion (GPS, HEK-293T) (PSI 1-6); higher = more stable; settings: c terminus: a fixed tail appended;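 further: lentivirally expressed fusions sorted by FACS into six bins by GFP to DsRed ratio, PSI derived from sequencing read proportions per bin multiplied by bin number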
A collection of variants and their measured protein stability index
Form rule: numeric answer, no unit written next to it.

These solved cases illustrate the format of a correct answer.
[[record]]
mutation_descriptor = "C8H"
endpoint_value = 3.26

[[record]]
mutation_descriptor = "R20W"
endpoint_value = 3.6

[[record]]
mutation_descriptor = "R14C"
endpoint_value = 3.86


Bench note: what protein stability index did R11N show?
4.24

FYI, the data here is from the supplement of paper PMC10567573.
